Test system: OVCAR-4
protocol.summary: NCI tumour cell line growth inhibition, 48 h
The source made the active and inactive calls. Cut-off read from the data, not from the text of the source: active = GI50 up to about 1.1 µM and inactive = higher.
parameter.measured: GI50

Quickly give me recorded GI50 for "CC1(C)COC(c2ccccc2-c2ccccc2)=N1"
> 100 µM (inactive)

Quickly give me recorded GI50 for "COc1cccc2c1Cc1cc(-c3ccccc3)[n+](C)n1-2"
3.19 µM (inactive)

Quickly give me recorded GI50 for "CCOC(=O)C1=C(N)N2C(=N[C@H]3CCCC[C@@H]32)N=C1"
37 µM (inactive)

Quickly give me recorded GI50 for COC(=O)CNC(=O)C(CSC(=O)OCC1c2ccccc2-c2ccccc21)NC(=O)CCC(NC(=O)OCC1c2ccccc2-c2ccccc21)C(=O)OC (configuration not stated)
16.9 µM (inactive)

Quickly give me recorded GI50 for "Oc1cc(-c2ccccc2)nc2ncccc12"
15 µM (inactive)

Data credit: ChEMBL document CHEMBL1201862
